System: XIP peptide (Xip251-270)
Experiment: small-molecule binders of XIP peptide, primary screen, biochemical, small-molecule microarray, fluorescence 635/667 nm, 0.5 µg/mL protein (AID 1183)
Conditions: small-molecule microarray binding, fluorescence 635 nm; higher = more signal
parameterMeasured: composite z-score

[[record]]
compound = "COC(=O)c1c(CC[C@@H](CO)NC(=O)NCCn2cc(C3(O)CCCC3)nn2)oc(C(C)=O)c1C(=O)OC"
parametermeasured = "composite z-score"
measuredvalue = -0.0213

[[record]]
compound = "NC(=O)N1C(=O)C2C(C1=O)C1C=C(c3ccc(CO)cc3)C2C(c2cccs2)N1Cc1cccc(OC(F)(F)F)c1 (centres undefined)"
parametermeasured = "composite z-score"
measuredvalue = -0.814

[[record]]
compound = "O=C1N(Cc2ccccc2)c2ccccc2[C@@H]2OC(c3ccc(OCCCO)cc3)=N[C@]12CCS(=O)(=O)c1ccccc1"
parametermeasured = "composite z-score"
measuredvalue = 0.677

[[record]]
compound = "COCCCNC(=O)[C@]1(CCC(=O)OC(C)(C)C)N=C(c2ccc(OCCCO)cc2)O[C@@H]1c1ccccc1CN=[N+]=[N-]"
parametermeasured = "composite z-score"
measuredvalue = 0.848


====

Tested on: Human papillomavirus type 1a protein E7 (residues 44-93)
Experiment: HPV1a E7 fragment binders on microarrays, primary screen, biochemical, small-molecule microarray, residues 44-93, 635 nm fluorescence (AID 1108);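 note: E7 fragment applied at 1 µg/mL in TBST for 1 h at 4 C; score combines spot fluorescence with its signal to noise ratio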
Settings: small-molecule microarray binding, fluorescence 635 nm; higher = more signal
Entries get a class label from measured composite z-score. See ranges: low end = under 0.3, middle = from 0.3 up to 1, high end = 1 and over

[[record]]
compound = "CC(C)[Si]1(C(C)C)O[C@@H](c2ccccc2)c2cc(-c3ccc(-c4ccc(Cl)c(Cl)c4)o3)nc(-c3ccccc3)c21"
label = "low end"

[[record]]
compound = "CCC(CC)C(O)C1C=CC2C(=O)NC(=O)C2N1Nc1ccc(Cl)cc1Cl (stereo not given)"
label = "middle"

[[record]]
compound = "O=C1C2C=CC(C(O)CCc3ccccc3)N(Nc3ccccc3F)C2C(=O)N1c1ccccc1 (stereo not given)"
label = "high end"

[[record]]
compound = "O=C1C[C@]2(c3ccc([N+](=O)[O-])cc3)C(=O)N(CC(F)(F)F)c3cc(CO)ccc3[C@H]2N1C1CCCCC1"
label = "low end"

[[record]]
compound = "COCCOC(=O)N1C(=O)[C@@]2(c3cc(C#CCCO)ccc31)[C@H](C(=O)N1CCCCCCC1)[C@H]1C(=O)O[C@H](c3ccccc3)[C@H](c3ccccc3)N1[C@@H]2c1ccc(OCCO)cc1"
label = "high end"

[[record]]
compound = "CN(C)CCCCCCNC(=O)[C@H]1C[C@H]2C(=O)N3CCC[C@H]3C(=O)N2[C@H]1c1ccc(O)cc1"
label = "high end"

[[record]]
compound = "CCCC[C@@H]1C[C@H]1[C@@H](NC(=O)c1ccco1)c1ccccc1C(F)(F)F"
label = "low end"

[[record]]
compound = "CC(C)NC(=O)[C@@H]1c2ccccc2C(=O)N(C2Cc3ccccc3C2)[C@H]1c1ccc(CO)cc1"
label = "high end"

[[record]]
compound = "CCCC[C@@H]1C[C@H]1[C@@H](NC(=O)c1cccs1)c1ccc(-c2ccccc2)cc1"
label = "middle"

[[record]]
compound = "CC(C)=CCN[C@H](CO)c1ccccc1"
label = "middle"

[[record]]
compound = "O=C(OCc1ccccc1)C1=CCC2c3[nH]c4ccccc4c3C(=O)C1N2S(=O)(=O)c1ccccc1[N+](=O)[O-] (stereo not given)"
label = "high end"

[[record]]
compound = "CC(C)N1C(=O)C[C@@](C(=O)NCC(F)(F)F)(c2ccc([N+](=O)[O-])cc2)[C@H]1c1ccc(CO)cc1"
label = "middle"

[[record]]
compound = "COCCOC(=O)N1C(=O)[C@@]2(c3cc(C#Cc4ccc(OC)cc4)ccc31)[C@H](c1ccc(OCCO)cc1)N1[C@H](c3ccccc3)[C@H](c3ccccc3)OC(=O)[C@H]1[C@@H]2C(=O)N1CCN(c2ncccn2)CC1"
label = "middle"

[[record]]
compound = "CN1C(=O)C2C=CC(C(O)c3ccccc3)N(N(c3ccccc3)c3ccccc3)C2C1=O (stereo not given)"
label = "low end"


====

Molecular target: Epidermal growth factor receptor (Homo sapiens) (UniProt P00533)
Sequence (P00533 whole entry, looked up): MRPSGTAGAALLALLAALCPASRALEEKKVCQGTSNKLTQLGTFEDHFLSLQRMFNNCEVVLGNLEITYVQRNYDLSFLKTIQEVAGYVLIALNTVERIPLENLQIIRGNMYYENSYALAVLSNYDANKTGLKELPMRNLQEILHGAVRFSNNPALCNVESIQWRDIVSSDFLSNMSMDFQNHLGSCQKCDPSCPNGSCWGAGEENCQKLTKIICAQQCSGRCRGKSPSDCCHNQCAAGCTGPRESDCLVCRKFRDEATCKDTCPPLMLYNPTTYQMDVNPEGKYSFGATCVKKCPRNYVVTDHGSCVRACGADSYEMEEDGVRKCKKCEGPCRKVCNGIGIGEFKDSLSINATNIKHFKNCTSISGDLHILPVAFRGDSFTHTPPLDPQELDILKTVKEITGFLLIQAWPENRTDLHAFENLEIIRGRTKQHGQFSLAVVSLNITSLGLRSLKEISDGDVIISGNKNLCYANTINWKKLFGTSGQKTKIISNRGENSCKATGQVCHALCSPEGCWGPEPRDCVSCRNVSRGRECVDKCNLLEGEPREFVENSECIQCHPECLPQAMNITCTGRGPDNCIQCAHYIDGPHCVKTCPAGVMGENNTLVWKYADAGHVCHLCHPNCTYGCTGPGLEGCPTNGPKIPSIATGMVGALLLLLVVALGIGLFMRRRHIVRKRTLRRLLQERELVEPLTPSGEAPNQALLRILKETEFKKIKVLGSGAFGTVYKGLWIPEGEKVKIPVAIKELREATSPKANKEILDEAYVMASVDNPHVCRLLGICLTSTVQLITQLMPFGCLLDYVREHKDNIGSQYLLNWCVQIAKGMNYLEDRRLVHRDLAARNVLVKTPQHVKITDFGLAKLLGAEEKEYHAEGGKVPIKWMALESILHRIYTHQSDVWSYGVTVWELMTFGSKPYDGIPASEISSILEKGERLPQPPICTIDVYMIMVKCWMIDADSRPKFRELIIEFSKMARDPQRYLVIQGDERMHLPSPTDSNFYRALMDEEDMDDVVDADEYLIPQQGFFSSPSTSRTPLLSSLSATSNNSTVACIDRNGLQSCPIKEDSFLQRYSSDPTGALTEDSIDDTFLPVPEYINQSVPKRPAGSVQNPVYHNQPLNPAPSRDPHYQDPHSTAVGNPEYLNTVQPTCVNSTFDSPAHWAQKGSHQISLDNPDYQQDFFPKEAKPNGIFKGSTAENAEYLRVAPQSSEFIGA
Assay: EGFR binders on small-molecule microarrays, primary screen, biochemical, small-molecule microarray, 635 nm fluorescence (AID 1104);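 note: score merges 667 nm emission intensity with spot signal to noise over triplicate slides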
Conditions: EGFR binding, higher = more signal
Listed below: composite z-score values for each entry.
parameterMeasured: composite z-score

[[record]]
compound = "O=C1N[C@@H](Cc2ccccc2)C(=O)N2[C@@H]1C[C@@H](C(=O)O)[C@H]2c1cccc(OCCO)c1"
measuredvalue = 0.334

[[record]]
compound = "[N-]=[N+]=NCc1ccccc1C[C@]1(C(N)=O)COC(c2ccc(OCCCO)cc2)=N1"
measuredvalue = -1.04

[[record]]
compound = "C=C(CCCC)/C(=C/C[C@H](OC(C)=O)c1ccccc1OCCO)c1cc(C(=O)OC)ccc1OC"
measuredvalue = -0.184

[[record]]
compound = "NC(=O)N1C(=O)C2C(C1=O)C1C=C(c3ccc(CO)cc3)C2C(c2cccs2)N1Cc1cccc(OC(F)(F)F)c1 (centres undefined)"
measuredvalue = -0.813

[[record]]
compound = "CC#CC(=O)Oc1ccccc1C=CC(=O)OCC"
measuredvalue = 0.27

[[record]]
compound = "CC(C)=CCCC(C)=CC(O)C1C=CC2C(=O)N(C)C(=O)C2N1Nc1ccccc1 (centres undefined)"
measuredvalue = 1.52

[[record]]
compound = "C=CC[C@@]12N=C(c3ccc(OCCCO)cc3)O[C@@H]1c1ccccc1N(C)C2=O"
measuredvalue = 0.166

[[record]]
compound = "CC(C)NC(=O)[C@@H]1c2ccccc2C(=O)N(C2Cc3ccccc3C2)[C@H]1c1ccc(CO)cc1"
measuredvalue = -0.477

[[record]]
compound = "NCCCCCCNC(=O)[C@@H]1C[C@@H]2C(=O)NCC(=O)N2[C@@H]1c1ccc(O)cc1"
measuredvalue = 0.574


====

Molecular target: Luciferin 4-monooxygenase (Photinus pyralis)
Assay: firefly luciferase enzyme inhibitors, primary screen, biochemical, luminescence, purified enzyme, 2006 set (AID 1141);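 note: cell-free assay with purified firefly luciferase at 100 ng per well in PBS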
Conditions: SteadyGlo luminescence, 30 min, higher = more signal, called active from +8 up or from −8 down
Assign MET whenever z-score does not fall below -0.5; assign NOT MET whenever it does.

[[record]]
molecule = "COc1ccc([Si](C)(C)[C@H]2[C@H](CC(=O)N3Cc4ccccc4C[C@H]3CO)O[C@@]3(C(=O)N(Cc4cccc(N5CCC5=O)c4)c4ccccc43)[C@@H]2C)cc1"
target = "Luciferin 4-monooxygenase (Photinus pyralis)"
label = "NOT MET"

[[record]]
molecule = "CCCCN1CC=CC23O[C@@H]4C=CCCOC(=O)C4[C@H]2C(=O)N(CCCCCCO)[C@@H]3C1=O (some centres not stated)"
target = "Luciferin 4-monooxygenase (Photinus pyralis)"
label = "NOT MET"

[[record]]
molecule = "COc1ccc(C#Cc2ccc3c(c2)[C@]2(C(=O)N3)[C@H](C(=O)NC[C@H](O)c3ccccc3)[C@H]3C(=O)O[C@H](c4ccccc4)[C@H](c4ccccc4)N3[C@@H]2c2ccc(O)cc2)cc1"
target = "Luciferin 4-monooxygenase (Photinus pyralis)"
label = "MET"

[[record]]
molecule = "COc1cc(NN2C(C(O)c3ccco3)C=CC3C(=O)N(c4ccccc4)C(=O)C32)cc(OC)c1OC (configuration not stated)"
target = "Luciferin 4-monooxygenase (Photinus pyralis)"
label = "NOT MET"

[[record]]
molecule = "COC(=O)C(CC#Cc1ccc2c(c1)[C@]1(C(=O)N2)[C@H](c2ccc(OCCO)cc2)N2[C@H](c3ccccc3)[C@H](c3ccccc3)OC(=O)[C@H]2[C@@H]1C(=O)N1CCc2cc(OC)c(OC)cc2C1)C(=O)OC"
target = "Luciferin 4-monooxygenase (Photinus pyralis)"
label = "MET"

[[record]]
molecule = "CC(C)C(=C=CC[C@@H](O)c1ccc(OCCO)cc1)C[C@@H](O)c1ccccn1"
target = "Luciferin 4-monooxygenase (Photinus pyralis)"
label = "MET"

[[record]]
molecule = "O=C(NCCN1CCOCC1)[C@@H]1c2ccccc2C(=O)N(C2CCCCC2)[C@H]1c1ccc(CO)cc1"
target = "Luciferin 4-monooxygenase (Photinus pyralis)"
label = "MET"


====

System: Lefty1
Experiment: Lefty1 binders on small-molecule microarrays, primary screen, biochemical, small-molecule microarray, 635/667 nm fluorescence (AID 1139)
Settings: small-molecule microarray binding, fluorescence 635/667; higher = more signal
Each entry gets not met if its composite z-score stays under -0.2, and met if its composite z-score is -0.2 or above.

[[record]]
compound = "CO[C@H]1O[C@H](CO)[C@@H](OC(=O)Nc2ccc(C(F)(F)F)cc2)[C@H](OC(=O)Nc2ccc3c(c2)OCO3)[C@@H]1OC(=O)Nc1ccc2c(c1)OCO2"
label = "met"

[[record]]
compound = "CCC[C@@H]1C[C@@]1(CCC)[C@@H](NC(=O)c1ccccc1)c1cccc(Cl)c1"
label = "not met"

[[record]]
compound = "Cc1ccc(N2C(=O)c3ccccc3[C@@H](C(=O)NC3CC3)[C@@H]2c2ccc(CO)cc2)nc1"
label = "not met"

[[record]]
compound = "O=C1NC(=O)C2C1C=CC(C(O)c1cccs1)N2Nc1ccc(Cl)cc1Cl (configuration not stated)"
label = "not met"

[[record]]
compound = "O=C1NC(=O)C2C1C=CC(C(O)c1cc(C(F)(F)F)cc(C(F)(F)F)c1)N2Nc1ccccn1 (configuration not stated)"
label = "met"

[[record]]
compound = "C=C[C@H](CO[Si](CC)(CC)CC)N(Cc1ccc(OC(C)=O)c(OC)c1)S(=O)(=O)c1ccc(Br)cc1"
label = "met"

[[record]]
compound = "COC(=O)C(CC#Cc1ccc2c(c1)[C@]1(C(=O)N2)[C@H](C(=O)Nc2nc3ccccc3s2)[C@H]2C(=O)O[C@H](c3ccccc3)[C@H](c3ccccc3)N2[C@@H]1c1ccc(O)cc1)C(=O)OC"
label = "met"

